Test system: Hepatitis C virus
Test: Antiviral activity against Hepatitis C virus infected in […] after 72 hrs by luciferase reporter gene assay
Format: functional, organism-based, Hepacivirus hominis
Conditions: OR6, 72 h
I'd be grateful if you could share measured EC50 for these entries.
// note: answer is a bare numeric in µM

Input line: Requested read-out: EC50. Entry: "NC(=O)c1ncn([C@@H]2O[C@H](CO)[C@@H](O)[C@H]2O)n1"
Output line: 5.6

Input line: What does the data say about its EC50? Entry: "CC(C)OC(=O)[C@H](C)N[P@](=O)(OC[C@H]1O[C@@H](n2ccc(=O)[nH]c2=O)[C@](C)(F)[C@@H]1O)Oc1ccccc1"
Output line: 0.14

Cited source: ChEMBL document CHEMBL3352698
